target: wild type PKR (Homo sapiens, UniProt P30613); experiment: PKR (wild type) enzyme AC50 assay, LDH/NADH-coupled, absorbance at 340 nm; type: biochemical; conditions: Table 4; AC50, enzyme assay; read-out: PKR WT
Sequence (P30613 whole entry): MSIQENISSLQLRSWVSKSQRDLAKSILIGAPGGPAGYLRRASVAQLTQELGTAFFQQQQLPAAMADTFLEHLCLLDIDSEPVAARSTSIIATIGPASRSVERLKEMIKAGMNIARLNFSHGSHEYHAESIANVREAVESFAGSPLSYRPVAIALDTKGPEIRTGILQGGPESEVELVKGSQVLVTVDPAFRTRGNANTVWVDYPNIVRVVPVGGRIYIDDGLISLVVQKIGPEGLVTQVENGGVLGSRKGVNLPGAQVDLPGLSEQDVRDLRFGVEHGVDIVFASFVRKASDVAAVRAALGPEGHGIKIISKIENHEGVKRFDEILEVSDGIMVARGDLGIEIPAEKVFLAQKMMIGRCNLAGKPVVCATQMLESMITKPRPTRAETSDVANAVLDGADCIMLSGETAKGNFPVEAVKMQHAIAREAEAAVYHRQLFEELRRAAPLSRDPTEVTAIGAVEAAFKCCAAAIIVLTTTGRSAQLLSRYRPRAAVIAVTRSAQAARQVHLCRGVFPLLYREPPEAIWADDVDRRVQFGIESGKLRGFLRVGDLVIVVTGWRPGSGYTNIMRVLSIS
pEC50: −log10 of the molar value.
measured-parameter: pEC50

{"compound": "Cn1c2nc(Cn3ccnc3)sc2c2cnn(Cc3cccc4[nH]ncc34)c(=O)c21 [Compound 277]", "measured-on": "wild type PKR (Homo sapiens, UniProt P30613)", "readout-value": "< 6.10"}
{"compound": "Cn1c2nc(Cc3cncs3)sc2c2cnn(Cc3cccc4[nH]ncc34)c(=O)c21 [Compound 211]", "measured-on": "wild type PKR (Homo sapiens, UniProt P30613)", "readout-value": "> 6.52"}
{"compound": "Cn1c2nc(Cc3n[nH]cc3Cl)sc2c2cnn(Cc3cccc4[nH]ncc34)c(=O)c21 [Compound 244]", "measured-on": "wild type PKR (Homo sapiens, UniProt P30613)", "readout-value": "> 6.52"}
{"compound": "Cn1c2nc(Cc3ccccn3)sc2c2cnn(Cc3ccccc3)c(=O)c21 [Compound 263]", "measured-on": "wild type PKR (Homo sapiens, UniProt P30613)", "readout-value": "> 6.52"}
{"compound": "Cn1c2nc(Cc3cc[nH]n3)sc2c2cnn(Cc3ccc4cc(Cl)[nH]c4n3)c(=O)c21 [Compound 388]", "measured-on": "wild type PKR (Homo sapiens, UniProt P30613)", "readout-value": "> 6.52"}
